All values here come from patent EP4501942A1.

test: Cytotoxicity MTT assay in uninfected A549-ACE2 cells; assay type: cell-based; conditions: human
parameter: CC50 at 48 h

// below: answered compounds
molecular string	CC50 at 48 h
CC(C)[C@H](NC(=O)OC(C)(C)C)C(=O)N1C[C@@H](C)[C@@]1(CC1CCCCC1)C(=O)N[C@H](C#N)C[C@@H]1CCNC1=O	> 100 µM
C[C@@H]1CN(C(=O)[C@@H](NC(=O)OC(C)(C)C)C(C)(C)C)[C@]1(CC1CCCCC1)C(=O)N[C@H](C#N)C[C@@H]1CCNC1=O	> 100 µM
CC(C)C[C@@]1(C(=O)N[C@H](C#N)C[C@@H]2CCNC2=O)[C@H](C)CN1C(=O)[C@@H](NC(=O)OCC(F)F)C(C)(C)C	> 100 µM
CC(C)[C@H](NC(=O)OCC(F)F)C(=O)N1C[C@@H](C)[C@@]1(Cc1ccccc1)C(=O)N[C@H](C#N)C[C@@H]1CCNC1=O	> 50 µM
CC(C)[C@H](NC(=O)OCc1ccccc1)C(=O)N1C[C@@H](C)[C@@]1(Cc1c[nH]c2ccccc12)C(=O)N[C@H](C#N)C[C@@H]1CCNC1=O	> 100 µM

Shifting focus to the compound that follows.
Quick one: CC50 at 48 h for CC(C)[C@H](NC(=O)C(F)(F)F)C(=O)N1C[C@@H](C)[C@@]1(Cc1ccccc1)C(=O)N[C@H](C#N)C[C@@H]1CCNC1=O ?
> 100 µM

====

molecular target: SARS-CoV-2 M^pro protein (Severe acute respiratory syndrome coronavirus 2, UniProt P0DTD1); experiment: biochemical; conditions: isolated SARS-CoV-2 M^pro; three separate experiments in duplicate; read-out: IC50, mean±SD
pIC50: −log10 of the molar value.
Outcome label depends on pIC50 relative to 6: at/above gives TRUE, below gives FALSE.

For orientation, consider the following solved cases.
compound	category
CC(C)C[C@@]1(C(=O)N[C@H](C=O)C[C@@H]2CCNC2=O)[C@H](C)CN1C(=O)[C@@H](NC(=O)OCc1ccccc1)C(C)C [Example 27]	TRUE
CC(C)C[C@@]1(C(=O)N[C@H](C#N)C[C@@H]2CCNC2=O)[C@H](C)CN1C(=O)[C@@H](NC(=O)OCC(F)F)C(C)(C)C [Example 33]	FALSE
CC(C)C(NC(=O)C1CC1)C(=O)N1CC(C)C1(Cc1ccccc1)C(=O)NC(C#N)CC1CCNC1=O (stereo not drawn) [Example 8]	TRUE

State whether the measured pIC50 reaches 6, counting equality as reaching it, for C[C@@H]1CN(C(=O)[C@@H](NC(=O)OC(C)(C)C)C(C)(C)C)[C@]1(Cc1ccccc1)C(=O)N[C@H](C=O)C[C@@H]1CCNC1=O [Example 29]
TRUE

====

molecular target: SARS-CoV-2 M^pro protein (Severe acute respiratory syndrome coronavirus 2, UniProt P0DTD1); assay: biochemical; settings: read-out: % of inhibition at 10 µM
parameter: inhibition at 10 µM (%)
All answers are understood in %, so give the number only.

// below: answered compounds
molecular string	inhibition at 10 µM (%)
CCCC[C@@H](C#N)NC(=O)[C@]1(CC(C)C)[C@H](C)CN1C(=O)[C@@H](NC(=O)OC(C)(C)C)C(C)(C)C	0
CCCC[C@@H](C#N)NC(=O)[C@]1(CC(C)C)[C@H](C)CN1C(=O)[C@@H](NC(=O)NC(C)(C)C)C(C)(C)C	0
CC(C)[C@@H](CC(=O)N1C[C@@H](C)[C@@]1(Cc1ccccc1)C(=O)N[C@H](C#N)C[C@@H]1CCNC1=O)NC(=O)OC(C)(C)C	28
C[C@@H]1CN(C(=O)[C@@H](NC(=O)OCc2ccccc2)C(C)(C)C)[C@]1(CCCCN)C(=O)N[C@H](C#N)C[C@@H]1CCNC1=O	0
C[C@@H]1CN(C(=O)[C@@H](NC(=O)OCc2ccccc2)C(C)(C)C)[C@]1(CCCCNC(=O)OC(C)(C)C)C(=O)N[C@H](C#N)C[C@@H]1CCNC1=O	16
CC(C)[C@H](NC(=O)OCc1ccccc1)C(=O)N1C[C@@H](C)[C@@]1(Cc1ccc(OC(C)(C)C)cc1)C(=O)N[C@H](C#N)C[C@@H]1CCNC1=O	9
C[C@@H]1CN(C(=O)[C@@H](NC(=O)OC(C)(C)C)C(C)(C)C)[C@]1(Cc1ccccc1)C(=O)N[C@H](/C=C/C(=O)OCc1ccccc1)C[C@@H]1CCNC1=O	40

Lab request: please report inhibition at 10 µM under test system SARS-CoV-2 M^pro protein (Severe acute respiratory syndrome coronavirus 2, UniProt P0DTD1) for C[C@@H]1CN(C(=O)[C@@H](NC(=O)OCc2ccccc2)C(C)(C)C)[C@]1(Cc1ccccc1)C(=O)N[C@H](C#N)Cc1c[nH]cn1
10

====

test: Cytotoxicity MTT assay in uninfected A549-ACE2 cells; type: cell-based; conditions: human
Reported CC50 at 48 h values for a set of compounds

Quick one: CC50 at 48 h for CC(C)[C@H](NC(=O)OC(C)(C)C)C(=O)N1C[C@@H](C)[C@@]1(Cc1ccccc1)C(=O)N[C@H](C#N)C[C@@H]1CCNC1=O ?
> 100 µM

Quick one: CC50 at 48 h for CC(C)C[C@@]1(C(=O)N[C@H](C#N)C[C@@H]2CCNC2=O)[C@H](C)CN1C(=O)[C@@H](NC(=O)OCc1ccccc1)C(C)C ?
> 100 µM

Quick one: CC50 at 48 h for C[C@@H]1CN(C(=O)[C@@H](NC(=O)OCC(F)F)C(C)(C)C)[C@]1(Cc1ccccc1)C(=O)N[C@H](C=O)C[C@@H]1CCNC1=O ?
> 100 µM

Quick one: CC50 at 48 h for C[C@@H]1CN(C(=O)[C@@H](NC(=O)C(F)(F)F)C(C)(C)C)[C@]1(Cc1ccccc1)C(=O)N[C@H](C#N)C[C@@H]1CCNC1=O ?
> 100 µM

Quick one: CC50 at 48 h for C[C@@H]1CN(C(=O)[C@@H](NC(=O)OCC(F)F)C(C)(C)C)[C@]1(CC1CCCCC1)C(=O)N[C@H](C#N)C[C@@H]1CCNC1=O ?
> 100 µM

Quick one: CC50 at 48 h for CC(C)(C)[C@H](NC(=O)C(F)(F)F)C(=O)N1C[C@H]2[C@@H]([C@H]1C(=O)N[C@H](C#N)C[C@@H]1CCNC1=O)C2(C)C [PF-07321332, nirmatrelvir, reference compound] ?
100 µM

====

target: SARS-CoV-2 M^pro protein (Severe acute respiratory syndrome coronavirus 2, UniProt P0DTD1); test: biochemical; settings: isolated SARS-CoV-2 M^pro; three separate experiments in duplicate; read-out: IC50, mean±SD
Reported pIC50 values for a set of compounds
// returns pIC50 (minus log10 of molar concentration), number only

molecular string	pIC50
CC(C)[C@H](NC(=O)OCc1ccccc1)C(=O)N1C[C@@H](C)[C@@]1(Cc1c[nH]c2ccccc12)C(=O)N[C@H](C#N)C[C@@H]1CCNC1=O	5.32
CC(C)C[C@@]1(C(=O)N[C@H](C#N)C[C@@H]2CCNC2=O)[C@H](C)CN1C(=O)[C@@H](NC(=O)OC(C)(C)C)C(C)(C)C	5.33

Shifting focus to the compound that follows.
Quick one: pIC50 for C[C@@H]1CN(C(=O)[C@@H](NC(=O)OCC(F)F)C(C)(C)C)[C@]1(Cc1ccccc1)C(=O)N[C@H](C=O)C[C@@H]1CCNC1=O ?
7.62

====

biological target: SARS-CoV-2 M^pro protein (Severe acute respiratory syndrome coronavirus 2, UniProt P0DTD1); assay: biochemical; settings: isolated SARS-CoV-2 M^pro; three separate experiments in duplicate; read-out: IC50, mean±SD
Cut-off 70 nM on IC50: below means satisfied, at or above means not satisfied.

Would you kindly verify if IC50 of CC(C)[C@H](NC(=O)OCc1ccccc1)C(=O)N1C[C@@H](C)[C@@]1(Cc1ccccc1)C(=O)N[C@H](C=O)C[C@@H]1CCNC1=O [Example 28] is strictly less than 70 nM?
satisfied

====

biological target: SARS-CoV-2 M^pro protein (Severe acute respiratory syndrome coronavirus 2); experiment: biochemical; conditions: isolated SARS-CoV-2 M^pro; three separate experiments in duplicate; read-out: IC50, mean±SD
Cut-off 2 µM on IC50: below means true (1), at or above means false (0).

Would you kindly verify if IC50 of C[C@@H]1CN(C(=O)[C@@H](NC(=O)C(F)(F)F)C(C)(C)C)[C@]1(CC1CCCCC1)C(=O)N[C@H](C#N)C[C@@H]1CCNC1=O is strictly less than 2 µM?
false (0)

Would you kindly verify if IC50 of CC(C)[C@H](NC(=O)OCc1ccccc1)C(=O)N1C[C@@H](C)[C@@]1(Cc1ccccc1)C(=O)N[C@H](C#N)C[C@@H]1CCNC1=O is strictly less than 2 µM?
true (1)
